test system: Saccharomyces cerevisiae BY4741 SeMeCo community; experiment: z-score of subpopulation abundance vs DMSO median, subpopulation auxotrophic for M; higher = larger share of this subpopulation than in DMSO controls; settings: 10 µM; 24 h; SM minimal medium; subpopulation (auxotrophy): M
Counter-ions that a name gives are not always drawn.
parameter: z-score of subpopulation abundance

compound	result
CCOC(=O)c1ccc(N)cc1 [Benzocaine hydrochloride]	-1.03
CN(C)CCCN1c2ccccc2Sc2ccccc21 [Promazine hydrochloride]	0.15
Cn1c(=O)c2c(ncn2CC2OCCO2)n(C)c1=O [Doxofylline]	-0.41
CC/C(=C(/CC)c1ccc(O)cc1)c1ccc(O)cc1 [Diethylstilbestrol]	0.52
CC(C)[C@H](N)C(=O)OCC(CO)OCn1cnc2c(=O)[nH]c(N)nc21 (some centres not stated) [Valganciclovir HCl]	-0.49
CC[C@@]1(O)C(=O)OCc2c1cc1n(c2=O)Cc2cc3cc(O)ccc3nc2-1 [(S)-10-Hydroxycamptothecin]	0.87
N=C(N)NC(=N)N1CCOCC1 [Moroxydine HCl]	-0.15
Cc1cccc(C)c1NC(=O)C1CCCCN1C (configuration not stated) [Mepivacaine]	0.42
O=C(C1CCCCC1)N1CC(=O)N2CCc3ccccc3C2C1 (configuration not stated) [Praziquantel]	0.19
Nc1nc(/C(=C/CC(=O)O)C(=O)N[C@@H]2C(=O)N3C(C(=O)O)=CCS[C@H]23)cs1 [Ceftibuten dihydrate]	0.21
C#C[C@]1(O)CC[C@H]2[C@@H]3CCC4=CC(=O)CC[C@@H]4[C@H]3C(=C)C[C@@]21CC [Etonogestrel]	-1.48
O=C(O)CCCCCCCC(=O)O [Azelaic acid]	0.44
N[C@@H]1CN(c2c(F)cc3c(=O)c(C(=O)O)cn([C@@H]4C[C@@H]4F)c3c2Cl)CC12CC2 [Sitafloxacin Hydrate]	0.3
COc1ccc(CC2c3cc(OC)c(OC)cc3CC[N+]2(C)CCC(=O)OCCCCCOC(=O)CC[N+]2(C)CCc3cc(OC)c(OC)cc3C2Cc2ccc(OC)c(OC)c2)cc1OC (configuration not stated) [Atracurium Besylate]	-0.87
CCN1CCN(C(=O)N[C@@H](C(=O)N[C@@H]2C(=O)N3C(C(=O)O)=C(CSc4nnnn4C)CS[C@H]23)c2ccc(O)cc2)C(=O)C1=O [Cefoperazone]	0.6
NS(=O)(=O)Cc1noc2ccccc12 [Zonisamide]	0.41
O=C(Nc1ccc(Oc2ccc(Cl)cc2)c(Cl)c1)c1cc(I)cc(I)c1O [Rafoxanide]	-0.29
COc1cc([C@@H]2c3cc4c(cc3[C@@H](O[C@@H]3O[C@@H]5CO[C@@H](c6cccs6)O[C@H]5[C@H](O)[C@H]3O)[C@H]3COC(=O)[C@H]23)OCO4)cc(OC)c1O [Teniposide]	1.05
CCC(C)(Oc1ccc(C2(c3ccc(OC(C)(CC)C(=O)O)cc3)CCCCC2)cc1)C(=O)O (configuration not stated) [Clinofibrate]	0.41
COc1cc(O)c(C(=O)Nc2nc(C(=O)NCCN(C(C)C)C(C)C)cs2)cc1OC [Acotiamide]	0.17
C[C@](N)(Cc1ccc(O)c(O)c1)C(=O)O [Methyldopa]	-1.02
CC[C@H]1OC(=O)[C@H](C)[C@@H](O[C@H]2C[C@@](C)(OC)[C@@H](O)[C@H](C)O2)[C@H](C)[C@@H](O[C@@H]2O[C@H](C)C[C@H](N(C)C)[C@H]2O)[C@](C)(O)C[C@@H](C)[C@@H]2N[C@@H](COCCOC)O[C@H]([C@H]2C)[C@]1(C)O [Dirithromycin]	0.26
COc1ccc(C2CNC(=O)C2)cc1OC1CCCC1 (stereo not drawn) [S- (+)-Rolipram]	-0.3
CC(=O)OCC1=C(C(=O)O)N2C(=O)C(NC(=O)CSC(=NC(C)C)NC(C)C)C2SC1 (configuration not stated) [Cefathiamidine]	-0.3
CONC(=O)Nc1ccc(-c2sc3c(c2CN(C)C)c(=O)n(-c2ccc(OC)nn2)c(=O)n3Cc2c(F)cccc2F)cc1 [Relugolix]	-1.52
CC1(C)[C@H](C(=O)O)N2C(=O)C[C@H]2S1(=O)=O [Sulbactam sodium]	0.51
O=C(O)CCC(=O)Nc1ccc(S(=O)(=O)Nc2nccs2)cc1 [Succinylsulfathiazole]	-0.13
Nc1c(CC(=O)O)cccc1C(=O)c1ccccc1 [Amfenac Sodium Monohydrate]	0.25
CCCN1CCCC[C@H]1C(=O)Nc1c(C)cccc1C [Ropivacaine]	0.5
CN1CCN(C2=Nc3ccccc3Oc3ccc(Cl)cc32)CC1 [Loxapine Succinate]	-0.12
O=C(c1ccc(OCCN2CCCCC2)cc1)c1c(-c2ccc(O)cc2)sc2cc(O)ccc12 [Raloxifene HCl]	0.58
Clc1ccc(CCC(Cn2ccnc2)Sc2c(Cl)cccc2Cl)cc1 (configuration not stated) [Butoconazole]	-8.6
